- method: chemical genetic growth profiling, strain panel (AID 1159580);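 note: tested at 20 µM; growth read once vehicle control cultures reached saturation at 30 °C; 1 = growth at the plate median or of vehicle wells; lower values mean less growth of the strain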
- conditions used: S. cerevisiae deletion strains, growth OD, locus YOR184W, strain ser1
Out of some 5,500 compounds screened, about 2,000 (36%) were called active. Roughly 18% stayed inconclusive and do not appear here. Cut-off read from the data, not from the text of the source: active = normalized growth mostly below about 0.91 (no sharp cut-off); inconclusive = no clear call, values can overlap the other calls; inactive = mostly above about 0.92. The list shows a part of the results.
Choose one outcome from this list and give only that: 1.0 = active, 0.0 = inactive

Problem: Could you please tell me the result logged for CCOC(=O)[C@H](CCc1ccccc1)N[C@@H](C)C(=O)N1[C@H](C(=O)O)C[C@@H]2CCC[C@@H]21 in this assay?
Solution: 0.0

Problem: Could you please tell me the result logged for C=CCSCC1Nc2cc(Cl)c(S(N)(=O)=O)cc2S(=O)(=O)N1 (stereo unspecified) in this assay?
Solution: 0.0

Problem: Could you please tell me the result logged for CCCCN1CCCCC1C(=O)Nc1c(C)cccc1C (stereo unspecified) in this assay?
Solution: 0.0

Problem: Could you please tell me the result logged for C[C@@H]1C(=O)OC2[C@H](O)C34[C@@H]5OC(=O)[C@@]3(O[C@@H]3OC(=O)[C@H](O)[C@@]34[C@H](C(C)(C)C)[C@H]5O)[C@]21O (stereo partly specified) in this assay?
Solution: 0.0

Problem: Could you please tell me the result logged for COc1c2ccoc2c(OC)c2oc(=O)ccc12 in this assay?
Solution: 1.0

Problem: Could you please tell me the result logged for CC1(C)OC(=O)C=CC2(C)C1CC(O)C1(C)C2CCC2(C)C(c3ccoc3)OC(=O)C3OC321 (stereo unspecified) in this assay?
Solution: 0.0

---

- method: chemical genetic growth profiling, strain panel (AID 1159580);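 note: tested at 20 µM; growth read once vehicle control cultures reached saturation at 30 °C; 1 = growth at the plate median or of vehicle wells; lower values mean less growth of the strain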
- conditions used: S. cerevisiae deletion strains, growth OD, locus YOR061W, strain CKA2, hits give low values
Out of some 5,500 compounds screened, about 2,000 (36%) were called active. Another 18% or so got no clear call; they are omitted. This is one part of the list.
property measured: normalized growth
Respond with the number and no other words.

Field normalized growth (entry O=C1CC2OCC=C3CN4CC[C@]56c7ccccc7N1C5[C@H]2[C@H]3CC46 (some centres not stated) ) reads 1.01

Field normalized growth (entry CC(C)(C)c1ccc(C(=O)Nc2ccc(C(F)(F)F)cc2)s1 ) reads 1

Field normalized growth (entry CC(C)NNC(=O)c1ccncc1 ) reads 1.01

Field normalized growth (entry CC1(C)NC(=O)N(c2ccc([N+](=O)[O-])c(C(F)(F)F)c2)C1=O ) reads 1.01

Field normalized growth (entry COc1ccc2c(c1OC)C(=O)OC2[C@H]1c2c(cc3c(c2OC)OCO3)CCN1C (some centres not stated) ) reads 1.01

Field normalized growth (entry CC(=O)OC1CCC2(C)C(=CC=C3C2CCC2(C)C3CCC2C(C)/C=C/C(C)C(C)C)C1(C)C (configuration not stated) ) reads 1

Field normalized growth (entry CC(=O)N[C@@H](CS)C(=O)O ) reads 1.02

Field normalized growth (entry COc1ccc2c(c1)O[C@H]1c3ccc(OC)cc3OC[C@@H]21 ) reads 0.997

Field normalized growth (entry Cc1cccc(NC(=S)NNC(=O)CSCc2cccc3ccccc23)c1 ) reads 0.904

Field normalized growth (entry O=c1[nH]oc2c1CCNC2 ) reads 1

Field normalized growth (entry O=[N+]([O-])c1ccc2oc(C(O)c3cccc(Cl)c3)cc2c1 (configuration not stated) ) reads 0.922

Field normalized growth (entry CCOC(=O)[C@H](CCc1ccccc1)N[C@@H](C)C(=O)N1[C@H](C(=O)O)C[C@@H]2CCC[C@@H]21 ) reads 1.01
